- Species: Rattus norvegicus
- assay.remarks: Open TG-GATES - Regimen: Single
- Assay type: toxicity, organism-based, Sprague-Dawley
- Set-up: regimen Single, gender Male, age 6 weeks
- test.parameters: in vivo, po, 30 mg/kg, 24 h, tissue Kidney, route gavage, dose level Middle
Entries and their KIDNEY_R values follow.
reported.metric: KIDNEY_R (g)

smiles.input: CN(C)CCN(Cc1cccs1)c1ccccn1
reported.metric: KIDNEY_R
unit.tag: g
endpoint.value: 0.9

smiles.input: CC1=C(/C=C/C(C)=C/C=C/C(C)=C/CO)C(C)(C)CCC1
reported.metric: KIDNEY_R
unit.tag: g
endpoint.value: 0.9

smiles.input: CN(C)CCCN1c2ccccc2CCc2ccccc21
reported.metric: KIDNEY_R
unit.tag: g
endpoint.value: 0.9

smiles.input: CN(C)CCCN1c2ccccc2CCc2ccc(Cl)cc21
reported.metric: KIDNEY_R
unit.tag: g
endpoint.value: 1

----------
Measured MCHC, listed per entry for reference.
- Species: Rattus norvegicus
- assay.remarks: Open TG-GATES - Regimen: Single
- Type: toxicity, organism-based, Sprague-Dawley
- Parameters: regimen Single, gender Male, age 6 weeks
- test.parameters: in vivo, po, 100 mg/kg, 3 h, tissue Blood, route gavage, dose level Low

compound: COC1=CC(=O)C[C@@H](C)[C@]12Oc1c(Cl)c(OC)cc(OC)c1C2=O
unit.tag: %
MCHC: 34.3

compound: COc1ccc2[nH]c([S+]([O-])Cc3ncc(C)c(OC)c3C)nc2c1 (centres undefined)
unit.tag: %
MCHC: 34.1

compound: NC(N)=Nc1nc(CSCCC(N)=NS(N)(=O)=O)cs1
unit.tag: %
MCHC: 35.3

compound: CCOC(=O)CCC(=O)O[C@H]1[C@H](O[C@@H]2[C@@H](C)[C@H](O[C@H]3C[C@@](C)(OC)[C@@H](O)[C@H](C)O3)[C@@H](C)C(=O)O[C@H](CC)[C@@](C)(O)[C@H](O)[C@@H](C)C(=O)[C@H](C)C[C@@]2(C)O)O[C@H](C)C[C@@H]1N(C)C [ERYTHROMYCIN ETHYLSUCCINATE]
unit.tag: %
MCHC: 33.2

----------
- Species: Rattus norvegicus
- assay.remarks: Open TG-GATES - Regimen: Single
- Format: toxicity, organism-based, Sprague-Dawley
- Parameters: regimen Single, gender Male, age 6 weeks
- test.parameters: in vivo, po, 0 mg/kg, 9 h, tissue Blood, route gavage, dose level Control
# binarize Mono: threshold 5% inclusive, high side 1, low side 0

molecule: CC/C(=C(\c1ccccc1)c1ccc(OCCN(C)C)cc1)c1ccccc1 [TAMOXIFEN]
category: 0

molecule: CCOC(=O)CCC(=O)O[C@H]1[C@H](O[C@@H]2[C@@H](C)[C@H](O[C@H]3C[C@@](C)(OC)[C@@H](O)[C@H](C)O3)[C@@H](C)C(=O)O[C@H](CC)[C@@](C)(O)[C@H](O)[C@@H](C)C(=O)[C@H](C)C[C@@]2(C)O)O[C@H](C)C[C@@H]1N(C)C [ERYTHROMYCIN ETHYLSUCCINATE]
category: 0

molecule: COc1cc2c(c(OC)c1OC)-c1ccc(OC)c(=O)cc1[C@@H](NC(C)=O)CC2 [COLCHICINE]
category: 1

molecule: CC1=C(/C=C/C(C)=C/C=C/C(C)=C/CO)C(C)(C)CCC1 [RETINOL]
category: 0

molecule: C[C@@H]1C[C@H]2[C@@H]3CCC4=CC(=O)C=C[C@]4(C)[C@@]3(F)[C@@H](O)C[C@]2(C)[C@@]1(O)C(=O)CO [DEXAMETHASONE]
category: 1

molecule: O=C(CCCN1CCC(O)(c2ccc(Cl)cc2)CC1)c1ccc(F)cc1 [HALOPERIDOL]
category: 1

molecule: NC(N)=Nc1nc(CSCCC(N)=NS(N)(=O)=O)cs1 [FAMOTIDINE]
category: 0
